Assay: yeast display, Sf9 membrane polyspecificity reagent, FACS + sequencing; frameworks hold sequencing errors
observable: polyreactivity (PSR sort gate)

Illustrative cases are given below, each with its answer.
{"biosequence": "QEQLVESGGGFVQAGGSLRLSCAASGRIFTGYAMGWYRQAPGKERELVAVITWSTGSSTYYADSVKGRFTISRDNAKNTVYLQMNSLNPEDTAVYYFNAAYKIDFTYDTYDYWGQGTQVTVSS", "polyreactivity (PSR sort gate)": "low polyreactivity"}
{"biosequence": "QVQLVESGGGLVQAGGSLRLSCAASGRTFWWYAMGWYRQAPGKEREFVAAISQRGTSTYYADSVKGRFTISRDNAKNTVYLQMNSLKPEDTAVYYCAAPLYRRWEVTYDYWGQGTQVTVSS", "polyreactivity (PSR sort gate)": "high polyreactivity"}
{"biosequence": "QVQIVDSGGGLVQAGGSLSLSCAASGSTIYRYAMGWYRQAPGKERELVAAITSAGSTNYADSVKGRFTISRDNAKNTVYLQMNSLKPEDTAVYYCAADHGRPYFSYDYWGQGTQVTVSS", "polyreactivity (PSR sort gate)": "low polyreactivity"}
{"biosequence": "QVQLVESGGGLVQAGGSLRLSCAASGSTFRSYNMGWYRQAPGKERELVADINGTGGSTYYADSVKGRFTISRDNAKNTVYLQMNSLKPEDTAVYYCAADGYFRTVTSGWALRMGYWGQGTQVTVSS", "polyreactivity (PSR sort gate)": "high polyreactivity"}

Please look at the following sequence next.
Prompt: Given the entry QVQLVESGGGLVQAGGSLRLSCAASGSIFRRNAMGWYRQAPGKERELVAAINSGGTTYYADSVKGRFTNSRDNAKNTVYLQMNSLKPEVTAVYYCATVYRGWYYYWGQGTQVTVSS , report its measured polyreactivity (PSR sort gate).
Response: high polyreactivity
